ASSAY_TARGET: pERK1/2 (Thr202/Tyr204), NCI-1H441 (KRAS G12V) (Homo sapiens, UniProt P01116, G12V)
Construct: pERK1/2 HTRF read-out
Sequence (P01116 1-188 isoform P01116-2 G12V): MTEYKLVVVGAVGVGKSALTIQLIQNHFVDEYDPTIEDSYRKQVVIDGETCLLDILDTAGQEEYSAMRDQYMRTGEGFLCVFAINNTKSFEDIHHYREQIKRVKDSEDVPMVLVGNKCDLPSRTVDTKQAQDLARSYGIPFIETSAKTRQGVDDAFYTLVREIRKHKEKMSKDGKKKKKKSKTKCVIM
PROTOCOL: Assay of intracellular pERK1/2 (Thr202/Tyr204) phosphorylation in NCI-H441 cells (KRAS G12V)
Assay type: cell-based
CONDITION_SET: pERK1/2, 2 days, read-out: NCI-H441 (KRAS G12V) IC50
pIC50: −log10 of the molar value.

COMPOUND: Cc1cc(N)cc(-c2nc3c4c(nc(OC[C@@]56CCCN5C[C@H](F)C6)nc4c2F)N(C(C)c2cc(F)cnc2N)CCO3)c1C(F)(F)F (stereo partly drawn)
RELATION_SYMBOL: =
pIC50: 9.10

COMPOUND: CC(c1cccnc1N)N1CCOc2nc(-c3cc(O)cc(Cl)c3C3CC3)c(F)c3nc(OC[C@@H]4CCN4CC(F)F)nc1c23 (stereo partly drawn) [Compound 16]
RELATION_SYMBOL: =
pIC50: 8.30

COMPOUND: CC(c1cccnc1N)N1CCOc2nc(-c3cc(N)ccc3C(F)(F)F)c(F)c3nc(OC[C@@H]4CC(F)(F)CN4C)nc1c23 (stereo partly drawn)
RELATION_SYMBOL: =
pIC50: 7.59

COMPOUND: CC[C@H]1COc2nc(-c3c(C(F)(F)F)c(C)cc4[nH]ncc34)c(F)c3nc(OC[C@@]45CCCN4C[C@H](F)C5)nc(c23)N1C(C)c1cccnc1N (stereo partly drawn)
RELATION_SYMBOL: =
pIC50: 8.30

COMPOUND: Cc1cc(N)cc(-c2nc3c4c(nc(OC[C@@H]5CCCN5C)nc4c2F)N(C(C)c2cccnc2N)CCO3)c1C(F)(F)F (single isomer, unassigned) [Compound 76]
RELATION_SYMBOL: =
pIC50: 9.15

COMPOUND: C[C@@H](c1cccnc1N)N1c2nc(OC[C@@]34CCCN3C[C@H](F)C4)nc3c(F)c(-c4c5ccccc5cc5[nH]ncc45)nc(c23)O[C@@H]2CCC[C@@H]21
RELATION_SYMBOL: <
pIC50: 6.00
